- Study System: PAD4 (Homo sapiens)
- Sequence (Q9UM07 whole entry, species assumed): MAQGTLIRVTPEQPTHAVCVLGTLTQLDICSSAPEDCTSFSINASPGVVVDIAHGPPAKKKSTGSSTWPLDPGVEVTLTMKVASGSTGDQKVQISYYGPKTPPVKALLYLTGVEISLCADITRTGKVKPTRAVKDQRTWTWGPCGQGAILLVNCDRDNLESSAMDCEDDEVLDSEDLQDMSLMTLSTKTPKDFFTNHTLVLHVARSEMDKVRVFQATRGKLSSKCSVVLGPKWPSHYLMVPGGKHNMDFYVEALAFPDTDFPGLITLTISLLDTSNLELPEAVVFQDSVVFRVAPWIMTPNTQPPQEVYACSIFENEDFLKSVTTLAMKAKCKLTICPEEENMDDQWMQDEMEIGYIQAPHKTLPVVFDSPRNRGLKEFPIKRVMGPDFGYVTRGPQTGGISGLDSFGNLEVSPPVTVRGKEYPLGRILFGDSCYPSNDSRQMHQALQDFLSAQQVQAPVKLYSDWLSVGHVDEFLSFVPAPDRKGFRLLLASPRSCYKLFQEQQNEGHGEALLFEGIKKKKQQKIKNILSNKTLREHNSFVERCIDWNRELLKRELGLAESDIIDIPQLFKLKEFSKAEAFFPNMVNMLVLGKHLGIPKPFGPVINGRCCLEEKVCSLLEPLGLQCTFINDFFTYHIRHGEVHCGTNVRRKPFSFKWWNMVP
- Protocol Description: PAD4 FP-ABPP HTS counterscreen with fluorescein-conjugated F-amidine
- Format: biochemical
pIC50: −log10 of the molar value.
Answer each item with its documented pIC50.

q: Give the observed pIC50 of CC(C)(Sc1ccc(CCN(CCCCC2CCCCC2)C(=O)NC2CCCCC2)cc1)C(=O)O [Compound 1, GW7647] for PAD4 (Homo sapiens).
a: < 4.23

q: Give the observed pIC50 of Clc1ccc(C(c2ccc(Cl)cc2)n2cc[n+](CC(OCc3ccc(Cl)cc3Cl)c3ccc(Cl)cc3Cl)c2)cc1 (centres unmarked) [Compound 4, calmidazolium] for PAD4 (Homo sapiens).
a: < 4.23

----------
- Study System: UniProt Q87P32
- Sequence (Q87P32 31-387): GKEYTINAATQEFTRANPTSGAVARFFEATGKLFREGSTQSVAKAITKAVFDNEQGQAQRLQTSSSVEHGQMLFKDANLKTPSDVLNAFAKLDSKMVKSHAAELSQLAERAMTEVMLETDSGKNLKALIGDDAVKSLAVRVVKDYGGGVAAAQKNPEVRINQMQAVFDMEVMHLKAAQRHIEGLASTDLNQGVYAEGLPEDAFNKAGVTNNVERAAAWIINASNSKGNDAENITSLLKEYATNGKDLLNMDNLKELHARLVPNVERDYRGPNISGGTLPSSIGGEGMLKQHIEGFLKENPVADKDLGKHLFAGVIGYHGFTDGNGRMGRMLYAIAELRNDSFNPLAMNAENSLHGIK
- Protocol Description: biochemical
- Assay Context: IC50, at 1, 2, and 3 h
Readout Kind: IC50

q: Fill in IC50 for record Nc1ncnc2c1ncn2[C@@H]1O[C@H](COP(=O)(O)OP(=O)(O)OP(=O)(O)O)[C@@H](O)[C@H]1O [ATP, adenosine triphosphate]
a: 6.8 to 7 µM

----------
- Test system: HYPE Fic E234G
- Protocol Description: Gel-based secondary screen, HYPE Fic E234G with histone H3 as substrate
- Assay type: biochemical, human
- Assay Context: 10 µM compound, relative to DMSO control
Readout Kind: Gel based % inhibition HYPE (%)
Use % as the unit, but write only the number.

q: Fill in Gel based % inhibition HYPE for record "CC(C)c1ccc2c(c1)c(SC(C)(C)C)c(CC(C)(C)C(=O)O)n2Cc1ccc(Cl)cc1"
a: 4

q: Fill in Gel based % inhibition HYPE for record "Nc1ncnc2c1ncn2[C@@H]1O[C@H](COP(=O)(O)OP(=O)(O)OP(=O)(O)OP(=O)(O)OC[C@H]2O[C@@H](n3cnc4c(N)ncnc43)[C@H](O)[C@@H]2O)[C@@H](O)[C@H]1O"
a: 41

q: Fill in Gel based % inhibition HYPE for record "CC(C)(Sc1ccc(CCN(CCCCC2CCCCC2)C(=O)NC2CCCCC2)cc1)C(=O)O"
a: 10

q: Fill in Gel based % inhibition HYPE for record Clc1ccc(C(c2ccc(Cl)cc2)n2cc[n+](CC(OCc3ccc(Cl)cc3Cl)c3ccc(Cl)cc3Cl)c2)cc1 (stereo not shown)
a: 2
